Target: T1, human AMHRII (anti-Mullerian hormone receptor type 2) (human, UniProt Q16671 18-573)
T1 construct: whole, on cells; also called AMHR2; human AMHR2
T1 sequence (looked up): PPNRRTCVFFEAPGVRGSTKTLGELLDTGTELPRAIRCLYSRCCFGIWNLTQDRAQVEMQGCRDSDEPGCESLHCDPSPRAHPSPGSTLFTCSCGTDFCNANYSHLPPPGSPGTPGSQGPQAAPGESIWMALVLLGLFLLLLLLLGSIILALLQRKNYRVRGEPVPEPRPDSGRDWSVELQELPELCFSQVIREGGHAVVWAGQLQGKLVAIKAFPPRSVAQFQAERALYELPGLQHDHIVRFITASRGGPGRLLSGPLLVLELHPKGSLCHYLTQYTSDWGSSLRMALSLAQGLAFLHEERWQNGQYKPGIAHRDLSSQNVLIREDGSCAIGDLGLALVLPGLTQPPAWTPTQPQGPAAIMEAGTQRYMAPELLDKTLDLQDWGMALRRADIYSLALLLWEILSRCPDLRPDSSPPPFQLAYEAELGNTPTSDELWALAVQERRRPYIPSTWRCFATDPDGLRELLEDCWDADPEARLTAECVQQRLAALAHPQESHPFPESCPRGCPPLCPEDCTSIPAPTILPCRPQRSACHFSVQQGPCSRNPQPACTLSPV
Test description: FACS on CHO-K1 cells over-expressing human AMHR2
Measurement kind: pEC50
pEC50 here: minus log base 10 of the concentration, concentration in moles per litre.

94C4C3 H4L2 hIgG1 (antibody, V domains shown, Humanized, human IgG1; also called 94C4C3 H4L2 hlgG1) VH: QVQLQESGPGLVKPSETLSLTCTVTGYSITSDYAWNWIRQFPGKKLEWMGYISYSGSISYNPSLKSRITISRDTSKNQFFLQLSSVTAADTAVYYCARSRYSWFDYWGQGTLVTVSS VL: EIVLTQSPGTLSLSPGERATLSCSASESVDTYGNSFMHWYQQKPGQPPRLLIYRASSLESGIPVRFSGSGSRTDFTLTISRLEPEDFAVYYCQQSNEDPYTFGGGTKVEIK : 8.99
94C4C3 H3L3 hIgG1 (antibody, V domains shown, Humanized, human IgG1; also called 94C4C3 H3L3 hlgG1) VH: QVQLQESGPGLVKPSETLSLTCTVSGYSITSDYAWNWIRQFPGKGLEWMGYISYSGSISYNPSLKSRITISRDTSKNQFFLKLSSVTAADTAVYYCARSRYSWFDYWGQGTLVTVSS VL: EIVLTQSPGTLSLSPGERATLSCSASESVDTYGNSFMHWYQQKPGQPPRLLIYRASSLESGIPVRFSGSGSRTDFTLTISRVEAEDFAVYYCQQSNEDPYTFGGGTKLEIK : 8.99

Okay, now this binder:
# pEC50 (binder: 94C4C3 H3L1 hIgG1 (antibody, V domains shown, Humanized, human IgG1; also called 94C4C3 H3L1 hlgG1) VH: QVQLQESGPGLVKPSETLSLTCTVSGYSITSDYAWNWIRQFPGKGLEWMGYISYSGSISYNPSLKSRITISRDTSKNQFFLKLSSVTAADTAVYYCARSRYSWFDYWGQGTLVTVSS VL: EIVLTQSPGTLSLSPGERATLSCSASESVDTYGNSFMHWYQQKPGQAPRLLIYRASSLESGIPDRFSGSGSGTDFTLTISRLEPEDFAVYYCQQSNEDPYTFGGGTKVEIK ) is 8.88
